# TEST NAME: yeast display, Sf9 membrane polyspecificity reagent, FACS + sequencing; frameworks hold sequencing errors
OUTCOME MEASURE: polyreactivity (PSR sort gate)

- SEQUENCE INPUT: "QVQLVESGGGLVQAGGILRLSSAASGSIFSNYAMGWYRQAPGKERELVAAINRSGGSTYYADSVKGRFTISRDNAKNTVYLQITSLKPDDTAVYYCNAVRLYYCAGGQFQYHFWGQGTQVTVSS"
  polyreactivity (PSR sort gate): "high polyreactivity"
- SEQUENCE INPUT: "QVQLVESGGGFVQAGGSLRVSCAASGSIFGSYAMGWYRQAPGKERELVADISSGGSTNYADSVKGRFTISRDNAKNTVYLQMNSLKPEDTAVYYCNADDPAGYLYWWGSWLESDYWGQGTQGTVSS"
  polyreactivity (PSR sort gate): "low polyreactivity"
- SEQUENCE INPUT: "QVQLVESGGGLVQAGGSLRLSCAASGSIFGYNAMGWYRQAPGKEREFVASIRYRGGSTYYADSVKGRFTISRDNAKNTVYLQMNSLKPEDTAVYYSAAYWWGVSKRQYGYWGQGTQVTVSS"
  polyreactivity (PSR sort gate): "high polyreactivity"
- SEQUENCE INPUT: "QVQLVESGGGLVQAGGSLRLSCAASGFIFLRYGMGWYRQAPGKERELVASIDSSGGSTYADSVKGRFTISRDNEKNTVFLQMKSLKPEDTAVYYCAADYYIVSVRDYWGQGTQVTVSS"
  polyreactivity (PSR sort gate): "low polyreactivity"

# get_value(readout='polyreactivity (PSR sort gate)', item= `QVQLVESGGGLVQAGGTLRLSCAASGRIFSDYAMGWYRQAPGKEREFVAAISSSGGRTYYADSVKGRFTISRDNAKNTVYLQMNSLKPEDTAVYYCNRYNGYYNTGRYGYLGQGTQVTVSS` )
high polyreactivity

====

# TEST NAME: yeast display, Sf9 membrane polyspecificity reagent, FACS + sequencing; frameworks hold sequencing errors
OUTCOME MEASURE: polyreactivity (PSR sort gate)

These recorded examples may help you get a feel for the data.
- SEQUENCE INPUT: "QVQLVESGGGLVQAGGSLRLSCAASGSTFTKYDMGWYRQAPGKERELVAAIRSGGDTNYADSVKGRFTISRDNAKNTVYLQMNSLKPEDTAVYYCAATVLGDYEYWGQGTQVTVSS"
  polyreactivity (PSR sort gate): "low polyreactivity"
- SEQUENCE INPUT: "QVQLVESGGGLVQAGGRLRLSCAASGFTFRRYTMGWYRQAPGKERELVAVISASGGSTYYADSEKGRFTISRDNAKNTVYLQMNSLKPEDTAVYYCNAVGTPYGLDEYWGQGTQVTVSS"
  polyreactivity (PSR sort gate): "high polyreactivity"
- SEQUENCE INPUT: "QVQLVESGGGLVQAGGSLRLSCAASGYTFRSYAMGWYRQAPGKEWEFVASISSSGGSTYYADSVKGRFTISRDNAKNTVYLQMNSLKPEDTAVYYCAASVVSYPYDEYDYWGQGTQVTVSS"
  polyreactivity (PSR sort gate): "low polyreactivity"
- SEQUENCE INPUT: "QVQLVESGVGLVQAGGSLRLSCAASGRIFAPYAMGWYRQAPGKERELVAAIRWRGGSTSYADSVKGRFTISRDNAKNTVYLQMNSLKPEDTAVYYCNADYGFSFYWYDYWGQGTQVTVSS"
  polyreactivity (PSR sort gate): "low polyreactivity"
- SEQUENCE INPUT: "QVQLVESGGGLVQAGGSLRLSCAASGGTFVGYAMGWYRQAPGKERELVAAINSSGGRTYYADSVKGRFTISRDNAKNTVYLQMNSLKPEDTAVYYCAKPRTYHKDKYDYWGQGTQVTVSS"
  polyreactivity (PSR sort gate): "high polyreactivity"

Pending sequence:
# get_value(readout='polyreactivity (PSR sort gate)', item= `QVQLVESGGGLVQAGGSLRLSCAASGSIFAYYVMGWYRPAPGKERELVAAITRAGSTYYADSVKGRFTISRDNGKNTVYLQMNSLKPEVSAVYYCDARVGYYFRPESYYWGQGTKVTVSS` )
high polyreactivity

Recorded values, source the nanobody polyreactivity screen of Harvey et al. (2022).
